Listing of entries alongside the reported N.
molecular target: LecB (Pseudomonas aeruginosa, UniProt Q9HYN5); conditions: ITC stoichiometry; mean ± SD of minimum three titrations (5: indirect titration with 3, two titrations)
Sequence (Q9HYN5 entry or part of it): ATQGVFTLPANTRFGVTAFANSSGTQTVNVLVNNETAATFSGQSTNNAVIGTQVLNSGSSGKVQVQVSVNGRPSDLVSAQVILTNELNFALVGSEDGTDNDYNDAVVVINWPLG

Below, 4 compounds whose answers are already recorded.
[[record]]
compound = "C[C@@H]1O[C@H](C)[C@@H](O)[C@H](O)[C@@H]1O"
study_system = "LecB (Pseudomonas aeruginosa, UniProt Q9HYN5)"
test_value = "0.86 ± 0.2"

[[record]]
compound = "OC1[C@H](O)COC[C@H]1O"
study_system = "LecB (Pseudomonas aeruginosa, UniProt Q9HYN5)"
test_value = "0.81 ± 0.1"

[[record]]
compound = "C[C@@H]1O[C@H](CO)[C@@H](O)[C@H](O)[C@@H]1O"
study_system = "LecB (Pseudomonas aeruginosa, UniProt Q9HYN5)"
test_value = "0.86 ± 0.1"

[[record]]
compound = "OC[C@H]1OC[C@@H](O)[C@@H](O)[C@@H]1O"
study_system = "LecB (Pseudomonas aeruginosa, UniProt Q9HYN5)"
test_value = "0.87 ± 0.18"


// next item, N requested
The recorded N for entry CC1OCC(O)C(O)C1O (centres unmarked) equals 1.07 ± 0.03
